Overview of recorded relative change in fluorescence signal for various binders
Molecular target: T1, anti-Inf-A binding antibody
T1 construct: also called anti-Inf-A antibody; anti-inf A antibody
Experiment: dissociation of labelled peptide from anti-Inf-A antibody on treatment with Inf-A; fluorescence
Ends that are not written are not given here. FAM = carboxyfluorescein (FAM) fluorescent label
Express your answer in %, writing the number without its unit.

Consider the reported relative change in fluorescence signal for these binders:
{"binder": "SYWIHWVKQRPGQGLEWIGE (not fully specified (N-terminus), Synthetic 20-mer homologous to the FR2 region of the heavy chain; The fluorescent label differs between experiments; also called H1 switching peptide; third peptide compound H1) [H1 peptide]", "relative change in fluorescence signal / %": 130}
{"binder": "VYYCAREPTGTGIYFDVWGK (not fully specified (N-terminus), Synthetic 20-mer homologous to the FR3 or FR4 region of the heavy chain; The label differs between experiments; also called H2 switching peptide; fourth peptide compound H2) [H2 peptide]", "relative change in fluorescence signal / %": 352}
{"binder": "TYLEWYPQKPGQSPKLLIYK (not fully specified (N-terminus), Synthetic 20-mer homologous to the FR2 region of the light chain; The label differs between experiments; also called L1 switching peptide; first peptide compound L1) [L1 peptide]", "relative change in fluorescence signal / %": 176}

We next turn to a different binder, shown below.
Exam item: Sample {FAM}-VYYCFQGSHVPFTK (Synthetic 14-mer homologous to the FR3 or FR4 region of the light chain; also called L2 switching peptide; second peptide compound L2) [L2 peptide] — what was its relative change in fluorescence signal?
Marked response: 225
